- ASSAY_TARGET: ZAP-70(h) (Homo sapiens)
- Sequence (P43403 whole entry): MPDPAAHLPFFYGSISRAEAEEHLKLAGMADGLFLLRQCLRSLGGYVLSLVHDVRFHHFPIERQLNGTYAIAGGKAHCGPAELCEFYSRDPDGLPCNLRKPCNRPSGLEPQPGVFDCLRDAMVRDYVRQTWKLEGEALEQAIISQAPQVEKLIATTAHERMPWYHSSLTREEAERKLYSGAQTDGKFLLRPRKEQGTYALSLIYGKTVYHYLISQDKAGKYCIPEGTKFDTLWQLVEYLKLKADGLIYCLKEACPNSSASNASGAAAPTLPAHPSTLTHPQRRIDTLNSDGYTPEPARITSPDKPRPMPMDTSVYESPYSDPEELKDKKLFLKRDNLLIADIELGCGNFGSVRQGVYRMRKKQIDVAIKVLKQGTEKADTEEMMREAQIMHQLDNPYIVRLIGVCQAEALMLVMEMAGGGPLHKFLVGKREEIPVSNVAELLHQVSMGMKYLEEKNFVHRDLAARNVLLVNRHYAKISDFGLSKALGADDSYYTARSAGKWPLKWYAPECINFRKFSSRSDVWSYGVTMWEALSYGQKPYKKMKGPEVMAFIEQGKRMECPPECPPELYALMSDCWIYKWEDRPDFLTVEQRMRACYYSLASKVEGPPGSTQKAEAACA
- ASSAY_TEXT: ZAP-70(h) kinase assay
- Format: biochemical
- CONDITION_LABEL: 3 μM; percent of control kinase activity
QUANTITY_KIND: Inhibitory activity (% of control), ZAP-70(h)

Q: Which measured Inhibitory activity (% of control), ZAP-70(h) belongs to CC(C)Cc1nc(-c2ccc3[nH]nc(-c4ccc5cc(OCCN6CCCC6)ccc5c4)c3c2)n[nH]1 , tested on ZAP-70(h) (Homo sapiens)?
Ans: 40 % of control

Q: Follow-up entry: CCN1CCC[C@H]1COc1ccc2cc(-c3n[nH]c4ccc(-c5nc(CC(C)(C)C)n[nH]5)cc34)ccc2c1
Ans: 26 % of control

Q: Try Fc1ccc(-c2n[nH]c3ccc(-c4n[nH]c(C5CCCC5)n4)cc23)cc1 [CC006, reference compound] next.
Ans: 77 % of control

Q: For O=C(NC1CCCC1)c1cccc(-c2n[nH]c3ccc(-c4nc[nH]n4)cc23)c1 [CC007, reference compound] then?
Ans: 87 % of control

Q: CC(C)(C)Cc1nc(-c2ccc3[nH]nc(-c4ccc5cc(OCc6ccccn6)ccc5c4)c3c2)n[nH]1 ?
Ans: 68 % of control

Q: And what about the molecule COc1ccc2cc(-c3n[nH]c4ccc(-c5n[nH]c(CN6CCOCC6)n5)cc34)ccc2c1 ?
Ans: 105 % of control

---

So I've got a bunch of compounds here, and I need their Inhibitory activity (% of control), PAK2(h) values.
- ASSAY_TARGET: PAK2(h) (Homo sapiens)
- Sequence (Q13177 whole entry): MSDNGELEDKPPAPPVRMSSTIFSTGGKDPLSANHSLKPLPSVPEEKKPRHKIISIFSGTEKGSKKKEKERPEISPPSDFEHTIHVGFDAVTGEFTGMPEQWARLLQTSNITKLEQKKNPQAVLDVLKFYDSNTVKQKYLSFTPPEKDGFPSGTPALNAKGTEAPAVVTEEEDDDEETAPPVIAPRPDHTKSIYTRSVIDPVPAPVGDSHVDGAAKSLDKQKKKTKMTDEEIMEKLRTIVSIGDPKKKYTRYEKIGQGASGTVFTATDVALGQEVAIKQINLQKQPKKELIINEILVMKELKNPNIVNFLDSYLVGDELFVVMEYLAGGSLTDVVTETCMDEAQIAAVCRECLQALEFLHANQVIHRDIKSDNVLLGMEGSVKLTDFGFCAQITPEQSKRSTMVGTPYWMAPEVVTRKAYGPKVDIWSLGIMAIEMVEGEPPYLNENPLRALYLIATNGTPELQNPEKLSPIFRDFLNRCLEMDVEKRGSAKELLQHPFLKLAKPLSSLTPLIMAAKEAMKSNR
- ASSAY_TEXT: PAK2(h) kinase assay
- Format: biochemical
- CONDITION_LABEL: 3 μM; percent of control kinase activity
- Method: Six compounds (presumptive single agents) were tested against a panel of 50 kinases. The results are presented in Table 2; numbers for each kinase indicate the percent of control kinase activity in the presence of a 3μM concentration of the indicated agent. Agents that target two or more different kinases are useful in the methods of the invention as described elsewhere herein. […]

Q: Can you look up the measured Inhibitory activity (% of control), PAK2(h) of CCN1CCC[C@H]1COc1ccc2cc(-c3n[nH]c4ccc(-c5nc(CC(C)(C)C)n[nH]5)cc34)ccc2c1 [CC005] for me?
Ans: 13 % of control

Q: Thanks! And COc1ccc2cc(-c3n[nH]c4ccc(-c5n[nH]c(CN6CCOCC6)n5)cc34)ccc2c1 [CC001] ?
Ans: 68 % of control

Q: Item: O=C(NC1CCCC1)c1cccc(-c2n[nH]c3ccc(-c4nc[nH]n4)cc23)c1 [CC007, reference compound]
Ans: 86 % of control

Q: Another: Fc1ccc(-c2n[nH]c3ccc(-c4n[nH]c(C5CCCC5)n4)cc23)cc1 [CC006, reference compound]
Ans: 56 % of control

Q: Quick one: CC(C)(C)Cc1nc(-c2ccc3[nH]nc(-c4ccc5cc(OCc6ccccn6)ccc5c4)c3c2)n[nH]1 [CC004]
Ans: 62 % of control

Q: Entry to check: CC(C)Cc1nc(-c2ccc3[nH]nc(-c4ccc5cc(OCCN6CCCC6)ccc5c4)c3c2)n[nH]1 [CC002]
Ans: 21 % of control

---

- ASSAY_TARGET: MAPKAP-K2(h) (Homo sapiens)
- Sequence (P49137 whole entry): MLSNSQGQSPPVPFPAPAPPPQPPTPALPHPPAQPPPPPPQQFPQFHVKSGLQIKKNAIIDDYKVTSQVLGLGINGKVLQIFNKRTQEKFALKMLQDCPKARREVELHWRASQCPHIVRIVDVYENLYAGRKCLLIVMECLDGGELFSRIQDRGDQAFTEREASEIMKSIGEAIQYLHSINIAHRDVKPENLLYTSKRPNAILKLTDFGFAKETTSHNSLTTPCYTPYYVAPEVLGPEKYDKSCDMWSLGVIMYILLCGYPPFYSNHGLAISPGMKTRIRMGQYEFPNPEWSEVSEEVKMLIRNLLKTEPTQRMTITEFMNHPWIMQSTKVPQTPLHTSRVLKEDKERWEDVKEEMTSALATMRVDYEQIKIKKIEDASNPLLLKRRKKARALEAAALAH
- ASSAY_TEXT: MAPKAP-K2(h) kinase assay
- Assay type: biochemical
- CONDITION_LABEL: 3 μM; percent of control kinase activity
QUANTITY_KIND: Inhibitory activity (% of control), MAPKAP-K2(h)

Q: Which value of Inhibitory activity (% of control), MAPKAP-K2(h) has been reported for O=C(NC1CCCC1)c1cccc(-c2n[nH]c3ccc(-c4nc[nH]n4)cc23)c1 [CC007, reference compound] in the records?
Ans: 86 % of control

Q: Now give it for CC(C)(C)Cc1nc(-c2ccc3[nH]nc(-c4ccc5cc(OCc6ccccn6)ccc5c4)c3c2)n[nH]1 [CC004] too.
Ans: 108 % of control

Q: How about this compound: Fc1ccc(-c2n[nH]c3ccc(-c4n[nH]c(C5CCCC5)n4)cc23)cc1 [CC006, reference compound]
Ans: 96 % of control

Q: Queued: COc1ccc2cc(-c3n[nH]c4ccc(-c5n[nH]c(CN6CCOCC6)n5)cc34)ccc2c1 [CC001]
Ans: 97 % of control

Q: Next: CC(C)Cc1nc(-c2ccc3[nH]nc(-c4ccc5cc(OCCN6CCCC6)ccc5c4)c3c2)n[nH]1 [CC002]
Ans: 72 % of control

Q: Try this compound next: CCN1CCC[C@H]1COc1ccc2cc(-c3n[nH]c4ccc(-c5nc(CC(C)(C)C)n[nH]5)cc34)ccc2c1 [CC005]
Ans: 56 % of control
